Sourced from patent US20230416305A1

measuredTarget: ANK3
experiment: SPR
assayEndpoint: Kd

Name the reported Kd value associated with the binder YAKRIFYQLLSKEL [AH2] 85.8 µM
